target: T1, human ROR1 (hROR1) on cells (human, UniProt Q01973 30-937); experiment: FACS, Panc-1 cells; note: test concentration or dose not given here
T1 construct: whole, on cells; the cell line is named under assay; also called HEK293T-hROR1; 293T-hROR1
T1 sequence (Q01973 30-937): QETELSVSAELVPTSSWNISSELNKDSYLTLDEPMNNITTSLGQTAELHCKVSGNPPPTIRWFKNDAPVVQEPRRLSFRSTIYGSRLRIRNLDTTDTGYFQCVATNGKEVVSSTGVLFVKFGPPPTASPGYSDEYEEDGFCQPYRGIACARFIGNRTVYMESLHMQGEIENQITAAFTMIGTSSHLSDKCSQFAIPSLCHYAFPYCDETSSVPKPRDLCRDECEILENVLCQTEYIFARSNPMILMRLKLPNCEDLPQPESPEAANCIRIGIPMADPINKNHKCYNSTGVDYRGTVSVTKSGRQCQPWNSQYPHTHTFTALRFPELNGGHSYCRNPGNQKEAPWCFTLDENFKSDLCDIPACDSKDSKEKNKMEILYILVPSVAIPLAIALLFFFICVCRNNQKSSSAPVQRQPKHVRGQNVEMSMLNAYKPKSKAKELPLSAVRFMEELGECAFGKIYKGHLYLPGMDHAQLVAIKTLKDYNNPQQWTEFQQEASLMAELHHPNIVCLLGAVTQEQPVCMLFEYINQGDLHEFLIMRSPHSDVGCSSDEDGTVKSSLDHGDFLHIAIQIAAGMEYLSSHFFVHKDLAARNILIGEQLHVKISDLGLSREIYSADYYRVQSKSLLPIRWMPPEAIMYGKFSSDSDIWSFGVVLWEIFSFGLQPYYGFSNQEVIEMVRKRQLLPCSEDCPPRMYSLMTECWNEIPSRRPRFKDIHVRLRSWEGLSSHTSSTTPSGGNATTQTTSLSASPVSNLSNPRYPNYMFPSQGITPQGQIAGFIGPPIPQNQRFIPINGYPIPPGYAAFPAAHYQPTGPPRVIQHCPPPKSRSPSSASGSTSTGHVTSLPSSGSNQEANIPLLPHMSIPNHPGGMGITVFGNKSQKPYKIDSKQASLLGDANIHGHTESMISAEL
So basically, if MFI comes in under 5000 MFI it's Yes, and if it's 5000 MFI or more it's No.

These recorded examples may help you get a feel for the data.
Field: below-cutoff. Rule: recorded MFI strictly less than 5000 MFI. Subject: PR002587 (antibody, human IgG1, kappa, V domains shown, PR001369 variant: VH G55A, VL S93A; hIgG1; also called anti-ROR1 1015M3-H10(H: G55A; L: S93A) hIgG1) VH: QVQLVESGGGVVQPGRSLRLSCAASGFTFSNYGIHWVRQAPGKGLEWVAIMWYDASNTDYADSVKGRFTISRDTSKNTLFLQMNSLRAEDTAVYYCAREQARSFDLWGRGTLVTVSS VL: DIVMTQSPSTLSASVGDRVTITCRASQTINNWLAWYQQKPGKAPKLLIYKASSLESGVPSRFSGSGSGTEFTLTISSLQPDDFATYYCQQYNAYSPMYTFGQGTKVEIKR
Yes

Field: below-cutoff. Rule: recorded MFI strictly less than 5000 MFI. Subject: PR002564 (antibody, human IgG1, kappa, V domains shown, PR001354 variant: VH D54E; hIgG1; also called anti-ROR1 1015M2-C9(H: D54E) hIgG1) VH: QVQLVQSGGGVVQPGRSLRLSCAASGFTFSSYGMHWVRQAPGKGLEWVAIMWYEGSDKDYADSVKGRFTISRDTSKNTLYLQMNSLRAEDTAVYYCAREQARSFDLWGRGTLVTVSS VL: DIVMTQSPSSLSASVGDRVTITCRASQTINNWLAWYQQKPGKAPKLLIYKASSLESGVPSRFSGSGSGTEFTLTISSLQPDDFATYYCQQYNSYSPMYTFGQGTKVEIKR
No

Field: below-cutoff. Rule: recorded MFI strictly less than 5000 MFI. Subject: PR002580 (antibody, human IgG1, kappa, V domains shown, PR001369 variant: VL N92Q; hIgG1; also called anti-ROR1 1015M3-H10(L: N92Q) hIgG1) VH: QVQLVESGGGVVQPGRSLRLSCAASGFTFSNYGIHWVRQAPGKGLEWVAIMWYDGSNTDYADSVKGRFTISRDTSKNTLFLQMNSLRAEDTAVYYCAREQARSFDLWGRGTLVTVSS VL: DIVMTQSPSTLSASVGDRVTITCRASQTINNWLAWYQQKPGKAPKLLIYKASSLESGVPSRFSGSGSGTEFTLTISSLQPDDFATYYCQQYQSYSPMYTFGQGTKVEIKR
Yes

Field: below-cutoff. Rule: recorded MFI strictly less than 5000 MFI. Subject: PR002582 (antibody, human IgG1, kappa, V domains shown, PR001369 variant: VH D54E; hIgG1; also called anti-ROR1 1015M3-H10(H: D54E) hIgG1) VH: QVQLVESGGGVVQPGRSLRLSCAASGFTFSNYGIHWVRQAPGKGLEWVAIMWYEGSNTDYADSVKGRFTISRDTSKNTLFLQMNSLRAEDTAVYYCAREQARSFDLWGRGTLVTVSS VL: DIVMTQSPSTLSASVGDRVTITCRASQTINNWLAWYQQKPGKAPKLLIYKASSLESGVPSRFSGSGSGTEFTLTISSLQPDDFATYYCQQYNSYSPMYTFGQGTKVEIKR
Yes

Field: below-cutoff. Rule: recorded MFI strictly less than 5000 MFI. Subject: PR002576 (antibody, human IgG1, kappa, V domains shown, PR001364 variant: VH D54E, VL S93A; hIgG1; also called anti-ROR1 1015M3-D8(H: D54E; L: S93A) hIgG1) VH: EVQLLESGGGVVQPGRSLRLSCAASGFTFSSFGMHWVRQAPGKGLEWVAVIWYEGSDKDYADSVKGRFTISRDTSKNTLYLQMNSLRAEDTAVYYCAREQARSFDLWGRGTLVTVSS VL: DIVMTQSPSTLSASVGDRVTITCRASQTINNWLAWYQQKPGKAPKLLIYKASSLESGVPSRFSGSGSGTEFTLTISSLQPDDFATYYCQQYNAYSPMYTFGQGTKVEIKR
Yes

Continuing:
Field: below-cutoff. Rule: recorded MFI strictly less than 5000 MFI. Subject: PR002586 (antibody, human IgG1, kappa, V domains shown, PR001369 variant: VH G55A, VL N92Q; hIgG1; also called anti-ROR1 1015M3-H10(H: G55A; L: N92Q) hIgG1) VH: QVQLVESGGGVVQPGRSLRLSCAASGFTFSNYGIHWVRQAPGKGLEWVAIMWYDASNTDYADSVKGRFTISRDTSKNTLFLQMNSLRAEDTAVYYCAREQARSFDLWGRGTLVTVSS VL: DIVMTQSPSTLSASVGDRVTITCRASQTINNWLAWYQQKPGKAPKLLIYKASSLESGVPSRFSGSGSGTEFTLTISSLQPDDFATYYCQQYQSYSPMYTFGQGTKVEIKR
No

Field: below-cutoff. Rule: recorded MFI strictly less than 5000 MFI. Subject: PR001356 (antibody, human IgG1, kappa, V domains shown, fully human IgG1, kappa; also called anti-ROR1 1015M2-E6 hIgG1; PR001356(WT)) VH: QVQLVESGGGVVQPGRSLRLSCAASGFTFSSYGMHWVRQAPGKGLEWVAVAWYDGVSEDYADSVKGRFTISRDNAKNTLYLQMNSLRAEDTAVYYCAREQARSFDLWGRGTLVTVSS VL: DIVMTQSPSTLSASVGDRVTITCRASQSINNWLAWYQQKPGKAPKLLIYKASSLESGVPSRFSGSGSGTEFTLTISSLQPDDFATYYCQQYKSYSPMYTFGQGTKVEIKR
No

Field: below-cutoff. Rule: recorded MFI strictly less than 5000 MFI. Subject: PR002565 (antibody, human IgG1, kappa, V domains shown, PR001354 variant: VH D54E, VL N92Q; hIgG1; also called anti-ROR1 1015M2-C9(H: D54E; L: N92Q) hIgG1) VH: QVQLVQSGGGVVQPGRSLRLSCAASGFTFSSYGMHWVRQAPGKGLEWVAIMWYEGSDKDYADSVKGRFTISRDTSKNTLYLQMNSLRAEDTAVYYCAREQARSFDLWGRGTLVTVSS VL: DIVMTQSPSSLSASVGDRVTITCRASQTINNWLAWYQQKPGKAPKLLIYKASSLESGVPSRFSGSGSGTEFTLTISSLQPDDFATYYCQQYQSYSPMYTFGQGTKVEIKR
No

Field: below-cutoff. Rule: recorded MFI strictly less than 5000 MFI. Subject: PR002579 (antibody, human IgG1, kappa, V domains shown, PR001364 variant: VH G55A, VL S93A; hIgG1; also called anti-ROR1 1015M3-D8(H: G55A; L: S93A) hIgG1) VH: EVQLLESGGGVVQPGRSLRLSCAASGFTFSSFGMHWVRQAPGKGLEWVAVIWYDASDKDYADSVKGRFTISRDTSKNTLYLQMNSLRAEDTAVYYCAREQARSFDLWGRGTLVTVSS VL: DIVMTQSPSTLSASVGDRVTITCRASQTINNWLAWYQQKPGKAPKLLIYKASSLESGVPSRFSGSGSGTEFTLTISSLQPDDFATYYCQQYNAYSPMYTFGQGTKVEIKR
No
